Assay: Protein binding in Sprague-Dawley rat plasma at 5 mg/L after 30 mins by ultracentrifugation based LC-MS/MS method
Type: ADME, cell-free
Settings: read-out: PPB (converted)
Positions of bridges follow the written chain, without caps; N, C: chain ends. Non-standard residues stand in square brackets, D forms with d. Residues, ends and D or L forms follow the SMILES beside them. *: point of attachment. Heptanoyl(6-Me) = CC(C)CCCCC(=O)*; X1 = CC[C@@H](C)CCCCC(=O)*; X2 = CC[C@H](C)CCCCC(=O)*; Dab = NCC[C@H](N)C(=O)O
Items are presented alongside their recorded fraction unbound at 0.5 h, 5 mg/L.
observable: fraction unbound at 0.5 h, 5 mg/L

molecule: CC[C@H](C)CCCCC(=O)N[C@@H](CCN)C(=O)N[C@H](C(=O)N[C@@H](CCN)C(=O)N[C@H]1CCNC(=O)[C@H]([C@@H](C)O)NC(=O)[C@H](CCN)NC(=O)[C@H](CCN)NC(=O)[C@H](CC(C)C)NC(=O)[C@@H](CC(C)C)NC(=O)[C@H](CCN)NC1=O)[C@@H](C)O (X2-[Dab]T[Dab][Dab][Dab][dL]L[Dab][Dab]T; lactam 4-C)
experimental.value: 0.434

molecule: CC(C)CCCCC(=O)N[C@@H](CCN)C(=O)N[C@H](C(=O)N[C@@H](CCN)C(=O)N[C@H]1CCNC(=O)[C@H]([C@@H](C)O)NC(=O)[C@H](CCN)NC(=O)[C@H](CCN)NC(=O)[C@H](CC(C)C)NC(=O)[C@@H](Cc2ccccc2)NC(=O)[C@H](CCN)NC1=O)[C@@H](C)O [POLYMYXIN B2] ({Heptanoyl(6-Me)}-[Dab]T[Dab][Dab][Dab][dF]L[Dab][Dab]T; lactam 4-C)
experimental.value: 0.316

molecule: CC(C)CCCCC(=O)N[C@@H](CCN)C(=O)N[C@H](C(=O)N[C@@H](CCN)C(=O)N[C@H]1CCNC(=O)[C@H]([C@@H](C)O)NC(=O)[C@H](CCN)NC(=O)[C@H](CCN)NC(=O)[C@H](CC(C)C)NC(=O)[C@@H](CC(C)C)NC(=O)[C@H](CCN)NC1=O)[C@@H](C)O [COLISTIN B] ({Heptanoyl(6-Me)}-[Dab]T[Dab][Dab][Dab][dL]L[Dab][Dab]T; lactam 4-C)
experimental.value: 0.583

molecule: CC[C@@H](C)CCCCC(=O)N[C@@H](CCN)C(=O)N[C@H](C(=O)N[C@@H](CCN)C(=O)N[C@H]1CCNC(=O)[C@H]([C@@H](C)O)NC(=O)[C@H](CCN)NC(=O)[C@H](CCN)NC(=O)[C@H](CC(C)C)NC(=O)[C@@H](Cc2ccccc2)NC(=O)[C@H](CCN)NC1=O)[C@@H](C)O (X1-[Dab]T[Dab][Dab][Dab][dF]L[Dab][Dab]T; lactam 4-C)
experimental.value: 0.177

* * *

Test: AUC (0 to infinity) in Sprague-Dawley rat at 0.8 mg/kg, iv administered as single bolus dose by LC-MS/MS analysis
Type: ADME, organism-based
Parameters: dose 0.8 mg/kg, route intravenous, time infinity
Settings: in vivo
Positions of bridges follow the written chain, without caps; N, C: chain ends. Non-standard residues stand in square brackets, D forms with d. Residues, ends and D or L forms follow the SMILES beside them. *: point of attachment. X2 = CC[C@H](C)CCCCC(=O)*; Dab = NCC[C@H](N)C(=O)O
observable: AUC(0-inf) (ng·h/mL)

molecule: CC[C@H](C)CCCCC(=O)N[C@@H](CCN)C(=O)N[C@H](C(=O)N[C@@H](CCN)C(=O)N[C@H]1CCNC(=O)[C@H]([C@@H](C)O)NC(=O)[C@H](CCN)NC(=O)[C@H](CCN)NC(=O)[C@H](CC(C)C)NC(=O)[C@@H](CC(C)C)NC(=O)[C@H](CCN)NC1=O)[C@@H](C)O (X2-[Dab]T[Dab][Dab][Dab][dL]L[Dab][Dab]T; lactam 4-C)
experimental.value: 5020

* * *

Items are presented alongside their recorded clearance.
Assay: Total clearance in Sprague-Dawley rat at 1 mg/kg, iv administered as bolus dose by HPLC analysis
Type: ADME, organism-based
Conditions: in vivo
Positions of bridges follow the written chain, without caps; N, C: chain ends. Non-standard residues stand in square brackets, D forms with d. Residues, ends and D or L forms follow the SMILES beside them. *: point of attachment. Heptanoyl(6-Me) = CC(C)CCCCC(=O)*; X2 = CC[C@H](C)CCCCC(=O)*; Dab = NCC[C@H](N)C(=O)O

molecule: CC(C)CCCCC(=O)N[C@@H](CCN)C(=O)N[C@H](C(=O)N[C@@H](CCN)C(=O)N[C@H]1CCNC(=O)[C@H]([C@@H](C)O)NC(=O)[C@H](CCN)NC(=O)[C@H](CCN)NC(=O)[C@H](CC(C)C)NC(=O)[C@@H](CC(C)C)NC(=O)[C@H](CCN)NC1=O)[C@@H](C)O [COLISTIN B] ({Heptanoyl(6-Me)}-[Dab]T[Dab][Dab][Dab][dL]L[Dab][Dab]T; lactam 4-C)
clearance [mL/min/kg]: 5.3
--
molecule: CC[C@H](C)CCCCC(=O)N[C@@H](CCN)C(=O)N[C@H](C(=O)N[C@@H](CCN)C(=O)N[C@H]1CCNC(=O)[C@H]([C@@H](C)O)NC(=O)[C@H](CCN)NC(=O)[C@H](CCN)NC(=O)[C@H](CC(C)C)NC(=O)[C@@H](CC(C)C)NC(=O)[C@H](CCN)NC1=O)[C@@H](C)O (X2-[Dab]T[Dab][Dab][Dab][dL]L[Dab][Dab]T; lactam 4-C)
clearance [mL/min/kg]: 5.1

* * *

Assay: Volume of distribution in Sprague-Dawley rat at 0.8 mg/kg, iv administered as single bolus dose by LC-MS/MS analysis
Assay type: ADME, organism-based
Details: in vivo
Positions of bridges follow the written chain, without caps; N, C: chain ends. Non-standard residues stand in square brackets, D forms with d. Residues, ends and D or L forms follow the SMILES beside them. *: point of attachment. Heptanoyl(6-Me) = CC(C)CCCCC(=O)*; X1 = CC[C@@H](C)CCCCC(=O)*; X2 = CC[C@H](C)CCCCC(=O)*; Dab = NCC[C@H](N)C(=O)O
Items are presented alongside their recorded Vd.
observable: Vd (L/kg)

molecule: CC(C)CCCCC(=O)N[C@@H](CCN)C(=O)N[C@H](C(=O)N[C@@H](CCN)C(=O)N[C@H]1CCNC(=O)[C@H]([C@@H](C)O)NC(=O)[C@H](CCN)NC(=O)[C@H](CCN)NC(=O)[C@H](CC(C)C)NC(=O)[C@@H](CC(C)C)NC(=O)[C@H](CCN)NC1=O)[C@@H](C)O [COLISTIN B] ({Heptanoyl(6-Me)}-[Dab]T[Dab][Dab][Dab][dL]L[Dab][Dab]T; lactam 4-C)
experimental.value: 0.37
--
molecule: CC(C)CCCCC(=O)N[C@@H](CCN)C(=O)N[C@H](C(=O)N[C@@H](CCN)C(=O)N[C@H]1CCNC(=O)[C@H]([C@@H](C)O)NC(=O)[C@H](CCN)NC(=O)[C@H](CCN)NC(=O)[C@H](CC(C)C)NC(=O)[C@@H](Cc2ccccc2)NC(=O)[C@H](CCN)NC1=O)[C@@H](C)O [POLYMYXIN B2] ({Heptanoyl(6-Me)}-[Dab]T[Dab][Dab][Dab][dF]L[Dab][Dab]T; lactam 4-C)
experimental.value: 0.23
--
molecule: CC[C@@H](C)CCCCC(=O)N[C@@H](CCN)C(=O)N[C@H](C(=O)N[C@@H](CCN)C(=O)N[C@H]1CCNC(=O)[C@H]([C@@H](C)O)NC(=O)[C@H](CCN)NC(=O)[C@H](CCN)NC(=O)[C@H](CC(C)C)NC(=O)[C@@H](Cc2ccccc2)NC(=O)[C@H](CCN)NC1=O)[C@@H](C)O (X1-[Dab]T[Dab][Dab][Dab][dF]L[Dab][Dab]T; lactam 4-C)
experimental.value: 0.21
--
molecule: CC[C@H](C)CCCCC(=O)N[C@@H](CCN)C(=O)N[C@H](C(=O)N[C@@H](CCN)C(=O)N[C@H]1CCNC(=O)[C@H]([C@@H](C)O)NC(=O)[C@H](CCN)NC(=O)[C@H](CCN)NC(=O)[C@H](CC(C)C)NC(=O)[C@@H](CC(C)C)NC(=O)[C@H](CCN)NC1=O)[C@@H](C)O (X2-[Dab]T[Dab][Dab][Dab][dL]L[Dab][Dab]T; lactam 4-C)
experimental.value: 0.27

* * *

Assay: Elimination half life in Sprague-Dawley rat at 0.8 mg/kg, iv administered as single bolus dose by LC-MS/MS analysis
Type: ADME, organism-based
Conditions: in vivo, read-out: beta t1/2
Positions of bridges follow the written chain, without caps; N, C: chain ends. Non-standard residues stand in square brackets, D forms with d. Residues, ends and D or L forms follow the SMILES beside them. *: point of attachment. Heptanoyl(6-Me) = CC(C)CCCCC(=O)*; X1 = CC[C@@H](C)CCCCC(=O)*; X2 = CC[C@H](C)CCCCC(=O)*; Dab = NCC[C@H](N)C(=O)O
observable: half-life (h)

compound: CC[C@H](C)CCCCC(=O)N[C@@H](CCN)C(=O)N[C@H](C(=O)N[C@@H](CCN)C(=O)N[C@H]1CCNC(=O)[C@H]([C@@H](C)O)NC(=O)[C@H](CCN)NC(=O)[C@H](CCN)NC(=O)[C@H](CC(C)C)NC(=O)[C@@H](CC(C)C)NC(=O)[C@H](CCN)NC1=O)[C@@H](C)O (X2-[Dab]T[Dab][Dab][Dab][dL]L[Dab][Dab]T; lactam 4-C)
observable: half-life
experimental.value: 1.37
//
compound: CC(C)CCCCC(=O)N[C@@H](CCN)C(=O)N[C@H](C(=O)N[C@@H](CCN)C(=O)N[C@H]1CCNC(=O)[C@H]([C@@H](C)O)NC(=O)[C@H](CCN)NC(=O)[C@H](CCN)NC(=O)[C@H](CC(C)C)NC(=O)[C@@H](Cc2ccccc2)NC(=O)[C@H](CCN)NC1=O)[C@@H](C)O [POLYMYXIN B2] ({Heptanoyl(6-Me)}-[Dab]T[Dab][Dab][Dab][dF]L[Dab][Dab]T; lactam 4-C)
observable: half-life
experimental.value: 1.58
//
compound: CC[C@@H](C)CCCCC(=O)N[C@@H](CCN)C(=O)N[C@H](C(=O)N[C@@H](CCN)C(=O)N[C@H]1CCNC(=O)[C@H]([C@@H](C)O)NC(=O)[C@H](CCN)NC(=O)[C@H](CCN)NC(=O)[C@H](CC(C)C)NC(=O)[C@@H](Cc2ccccc2)NC(=O)[C@H](CCN)NC1=O)[C@@H](C)O (X1-[Dab]T[Dab][Dab][Dab][dF]L[Dab][Dab]T; lactam 4-C)
observable: half-life
experimental.value: 1.32

// provenance: ChEMBL document CHEMBL4004810
